Source: patent US20060069132A1

tested on: giant foxtail; experiment: Test B pre-/postemergence herbicide test; format: in vivo, Setaria faberi; settings: 500 g ai/ha; visual rating, 0 = no effect, 100 = complete control; preemergence
For each record, write down the corresponding Plant response rating, Foxtail, Giant.
One number for each entry.

[
  {
    "molecule": "CCOc1ccc(F)c(NC(=O)c2cc(C(C)(C)C)nn2CC)c1",
    "measured on": "giant foxtail",
    "Plant response rating, Foxtail, Giant": 0
  },
  {
    "molecule": "CCNC(=O)c1ccc(F)c(NC(=O)c2c(F)c(C(C)(C)C)nn2CC)c1",
    "measured on": "giant foxtail",
    "Plant response rating, Foxtail, Giant": 20
  },
  {
    "molecule": "CCNC(=S)c1ccc(F)c(NC(=O)c2cc(C(C)(C)C)nn2CC)c1",
    "measured on": "giant foxtail",
    "Plant response rating, Foxtail, Giant": 100
  }
]

Quick one: give me Plant response rating, Foxtail, Giant for each item below, same order please.
1. CCN1N=C(C(C)(C)C)CC1C(=O)Nc1cc(C(=O)N2CCCCC2)ccc1F (racemic)
2. CCn1nc(C(C)(C)C)cc1C(=O)Nc1cccc(C(=O)N2CC=CC2)c1
3. CCN1N=C(C(C)(C)C)CC1C(=O)Nc1cc(C(=O)N2CCCC2)ccc1F (racemic)

Reply:
80
90
100

Quick one: give me Plant response rating, Foxtail, Giant for each item below, same order please.
1. CCn1nc(C(C)(C)C)cc1C(=O)Nc1cc(C(=O)N2CCOCC2)ccc1F
2. CCc1nn(C(C)(C)C)cc1C(=O)Nc1ccc(F)c(C(=O)N(C)C)c1

Reply:
[80, 0]
